Each recorded value in this set is attributed to PubChem BioAssay AID2060894.

# System: K12877-001-R-J1-PDC complex spheroid viability
# Test Method Notes: Anticancer human tumor K12877-001-R-J1-PDC patient-derived lung adenocarcinoma cell line growth inhibition [RAS]
# Condition: curve of first compound; second compound 0.000949 µM
Metric: IC50 (nM)

Look over these answered cases.
# Compound, Metric, Assay Value
rows = [
    ("CC1(C)CCC(Nc2ncc(C(F)(F)F)c(-c3c[nH]c4c(P(C)(C)=O)c(C#N)ccc34)n2)CN1 (stereo not given) + CCn1c(-c2cccnc2C(C)OC)c2c3cc(ccc31)N1CCOC(CC(NC(=O)C(C(C)C)N(C)C(=O)C3(F)CCN(C(=O)C#CC(C)(C)N(C)C)CC3)C(=O)N3CCCC(N3)C(=O)OCC(C)(C)C2)C1", "IC50", 16.8),
    ("Nc1ccn(C2OC(CO)C(O)C2(F)F)c(=O)n1 (stereo not given) + CCn1c(-c2cccnc2C(C)OC)c2c3cc(ccc31)N1CCOC(CC(NC(=O)C(C(C)C)N(C)C(=O)C3(F)CCN(C(=O)C#CC(C)(C)N(C)C)CC3)C(=O)N3CCCC(N3)C(=O)OCC(C)(C)C2)C1", "IC50", 14.5),
    ("CCc1c2c(nc3ccc(O)cc13)-c1cc3c(c(=O)n1C2)COC(=O)[C@]3(O)CC + CCn1c(-c2cccnc2C(C)OC)c2c3cc(ccc31)N1CCOC(CC(NC(=O)C(C(C)C)N(C)C(=O)C3(F)CCN(C(=O)C#CC(C)(C)N(C)C)CC3)C(=O)N3CCCC(N3)C(=O)OCC(C)(C)C2)C1", "IC50", 4.24),
    ("Nc1ccn(C2OC(CO)C(O)C2(F)F)c(=O)n1 (stereo not given) + CCn1c(-c2cc(N3CCN(C)CC3)cnc2C(C)OC)c2c3cc(ccc31)-c1csc(n1)CC(NC(=O)C1CC1C)C(=O)N1CCCC(N1)C(=O)OCC(C)(C)C2", "IC50", 13.9),
    ("CC(C)n1nc(-c2ccc3oc(N)nc3c2)c2c(N)ncnc21 + CCn1c(-c2cccnc2C(C)OC)c2c3cc(ccc31)N1CCOC(CC(NC(=O)C(C(C)C)N(C)C(=O)C3(F)CCN(C(=O)C#CC(C)(C)N(C)C)CC3)C(=O)N3CCCC(N3)C(=O)OCC(C)(C)C2)C1", "IC50", 9.24),
]

(a) CC(C)n1nc(-c2ccc3oc(N)nc3c2)c2c(N)ncnc21 + CCn1c(-c2cc(N3CCN(C)CC3)cnc2C(C)OC)c2c3cc(ccc31)-c1csc(n1)CC(NC(=O)C1CC1C)C(=O)N1CCCC(N1)C(=O)OCC(C)(C)C2
(b) CC1(C)CCC(Nc2ncc(C(F)(F)F)c(-c3c[nH]c4c(P(C)(C)=O)c(C#N)ccc34)n2)CN1 (stereo not given) + CCn1c(-c2cc(N3CCN(C)CC3)cnc2C(C)OC)c2c3cc(ccc31)-c1csc(n1)CC(NC(=O)C1CC1C)C(=O)N1CCCC(N1)C(=O)OCC(C)(C)C2
stdin: Looking only at measured IC50, which entry is lower, a or b ? Lab note: record the label of whichever item you select.
stdout: a

###

Each entry below carries its reported viability, T/C.
# System: K12877-001-R-J1-PDC complex spheroid viability
# Test Method Notes: Anticancer human tumor K12877-001-R-J1-PDC cell line growth inhibition [RAS];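 note: spheroids exposed to agents for one week before readout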;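 for viability, T/C: tumour cells co-cultured with HUVEC and mesenchymal stem cells in spheroids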
# Condition: second compound 0.0316 µM; first compound 1 µM; stronger effect = lower value
Could you give me the number in %? Just the number is fine.

# Compound, viability, T/C [%]
records = [
    ("O=C(c1ccc(F)c(F)c1Nc1ccc(I)cc1F)N1CC(O)([C@@H]2CCCCN2)C1 + C=CC(=O)N1CCN(c2nc(OCC3CCCN3C)nc3c(F)c(-c4nc(N)cc(C)c4C(F)(F)F)c(Cl)cc23)C(C)C1", 66.4),
    ("Cc1nc(N2CCC3(CC2)COC(C)C3N)c(CO)nc1Sc1ccnc(N)c1Cl (stereo not given) + C#Cc1c(F)ccc2cc(O)cc(-c3ncc4c(N5CC6CCC(C5)N6)nc(OCC56CCCN5CC(F)C6)nc4c3F)c12", 95.1),
    ("NC1c2ccccc2OC12CCN(c1cnc3c(N4CCCc5ncccc54)n[nH]c3n1)CC2 (stereo not given) + C#Cc1c(F)ccc2cc(O)cc(-c3ncc4c(N5CC6CCC(C5)N6)nc(OCC56CCCN5CC(F)C6)nc4c3F)c12", 93.1),
    ("CC(=O)OC12COC1CC(O)C1(C)C(=O)C(O)C3=C(C)C(OC(=O)C(O)C(NC(=O)OC(C)(C)C)c4ccccc4)CC(O)(C(OC(=O)c4ccccc4)C21)C3(C)C (stereo not given) + C=CC(=O)N1CCN(c2nc(OCC3CCCN3C)nc3c(F)c(-c4nc(N)cc(C)c4C(F)(F)F)c(Cl)cc23)C(C)C1", 2.91),
    ("CCN1CCN(Cc2ccc(Nc3ncc(F)c(-c4cc(F)c5nc(C)n(C(C)C)c5c4)n3)nc2)CC1 + C=CC(=O)N1CCN(c2nc(OCC3CCCN3C)nc3c(F)c(-c4nc(N)cc(C)c4C(F)(F)F)c(Cl)cc23)C(C)C1", 39.2),
    ("CCC(CC)c1cc(NC2CCC(N)C2)n2nccc2n1 (stereo not given) + C#Cc1c(F)ccc2cc(O)cc(-c3ncc4c(N5CC6CCC(C5)N6)nc(OCC56CCCN5CC(F)C6)nc4c3F)c12", 78.1),
]

stdin: Return reported viability, T/C for target or system K12877-001-R-J1-PDC complex spheroid viability, item Cc1nc(N2CCC3(CC2)COC(C)C3N)c(CO)nc1Sc1ccnc(N)c1Cl (stereo not given) + C=CC(=O)N1CCN(c2nc(OCC3CCCN3C)nc3c(F)c(-c4nc(N)cc(C)c4C(F)(F)F)c(Cl)cc23)C(C)C1 .
stdout: 70

stdin: Recall the reported viability, T/C of C[C@@H](NC(=O)c1ncnc(N)c1Cl)c1ncc(C(=O)Nc2cc(C(F)(F)F)c(Cl)cn2)s1 + C=CC(=O)N1CCN(c2nc(OCC3CCCN3C)nc3c(F)c(-c4nc(N)cc(C)c4C(F)(F)F)c(Cl)cc23)C(C)C1 when tested on K12877-001-R-J1-PDC complex spheroid viability.
stdout: 90.1

stdin: Lab note: K12877-001-R-J1-PDC complex spheroid viability assay, enter viability, T/C for C=CC(=O)Nc1cc(Nc2nccc(-c3cn(C)c4ccccc34)n2)c(OC)cc1N(C)CCN(C)C + C#Cc1c(F)ccc2cc(O)cc(-c3ncc4c(N5CC6CCC(C5)N6)nc(OCC56CCCN5CC(F)C6)nc4c3F)c12 here
stdout: 94.3

stdin: Look up and report measured viability, T/C (K12877-001-R-J1-PDC complex spheroid viability) for the following compound: O=C(c1ccc(F)c(F)c1Nc1ccc(I)cc1F)N1CC(O)([C@@H]2CCCCN2)C1 + C#Cc1c(F)ccc2cc(O)cc(-c3ncc4c(N5CC6CCC(C5)N6)nc(OCC56CCCN5CC(F)C6)nc4c3F)c12
stdout: 58

stdin: Please report the measured viability, T/C for CC(Nc1ccc2c(c1)OCCn1cc(N3C(=O)OCC3C(F)F)nc1-2)C(N)=O (stereo not given) + C#Cc1c(F)ccc2cc(O)cc(-c3ncc4c(N5CC6CCC(C5)N6)nc(OCC56CCCN5CC(F)C6)nc4c3F)c12 tested on K12877-001-R-J1-PDC complex spheroid viability.
stdout: 69.6

stdin: Specify the recorded viability, T/C for NC1c2ccccc2OC12CCN(c1cnc3c(N4CCCc5ncccc54)n[nH]c3n1)CC2 (stereo not given) + C=CC(=O)N1CCN(c2nc(OCC3CCCN3C)nc3c(F)c(-c4nc(N)cc(C)c4C(F)(F)F)c(Cl)cc23)C(C)C1 , system: K12877-001-R-J1-PDC complex spheroid viability.
stdout: 69.3

###

# System: K12877-001-R-J1-PDC complex spheroid viability
# Test Method Notes: Anticancer human tumor K12877-001-R-J1-PDC cell line growth inhibition [RAS];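 note: spheroids exposed to agents for one week before readout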
# Condition: curve of first compound; second compound 0.0316 µM
# Description: RAS pathway inhibitors in Combinations in Complex Spheroids A high-throughput screen of multi-cell type tumor spheroids was designed to identify active combinations of RAS pathway inhibitors and targeted small molecules. Complex spheroids include a stromal component modeled by human endothelial cells (HUVEC) and fibroblasts modeled by human mesenchymal stem cells (MSCs). […] Compounds. […] If the clinical Cmax for an agent had not been determined, the highest concentration tested was 10 microM. […]
pIC50: −log10 of the molar value.
Metric: pIC50

The following compounds have reported results that may help.
# Compound, pIC50
rows = [
    ("CC(Nc1ccc2c(c1)OCCn1cc(N3C(=O)OCC3C(F)F)nc1-2)C(N)=O (stereo not given) + C=CC(=O)N1CCN(c2nc(OCC3CCCN3C)nc3c(F)c(-c4nc(N)cc(C)c4C(F)(F)F)c(Cl)cc23)C(C)C1", 5.67),
    ("NC1c2ccccc2OC12CCN(c1cnc3c(N4CCCc5ncccc54)n[nH]c3n1)CC2 (stereo not given) + C=CC(=O)N1CCN(c2nc(OCC3CCCN3C)nc3c(F)c(-c4nc(N)cc(C)c4C(F)(F)F)c(Cl)cc23)C(C)C1", 5.16),
]

(A) CC(C)NCC(C(=O)N1CCN(c2ncnc3c2C(C)CC3O)CC1)c1ccc(Cl)cc1 (stereo not given) + C#Cc1c(F)ccc2cc(O)cc(-c3ncc4c(N5CC6CCC(C5)N6)nc(OCC56CCCN5CC(F)C6)nc4c3F)c12
(B) CCc1c2c(nc3ccc(O)cc13)-c1cc3c(c(=O)n1C2)COC(=O)[C@]3(O)CC + C=CC(=O)N1CCN(c2nc(OCC3CCCN3C)nc3c(F)c(-c4nc(N)cc(C)c4C(F)(F)F)c(Cl)cc23)C(C)C1
stdin: Pick one, A or B : lowest reported pIC50. Answer format: the label of the selected item.
stdout: A
